From: patent US20220177477A1

subject-of-test: TRKA-G667C (Homo sapiens, UniProt P04629, G667C)
Sequence (P04629 33-796 G667C): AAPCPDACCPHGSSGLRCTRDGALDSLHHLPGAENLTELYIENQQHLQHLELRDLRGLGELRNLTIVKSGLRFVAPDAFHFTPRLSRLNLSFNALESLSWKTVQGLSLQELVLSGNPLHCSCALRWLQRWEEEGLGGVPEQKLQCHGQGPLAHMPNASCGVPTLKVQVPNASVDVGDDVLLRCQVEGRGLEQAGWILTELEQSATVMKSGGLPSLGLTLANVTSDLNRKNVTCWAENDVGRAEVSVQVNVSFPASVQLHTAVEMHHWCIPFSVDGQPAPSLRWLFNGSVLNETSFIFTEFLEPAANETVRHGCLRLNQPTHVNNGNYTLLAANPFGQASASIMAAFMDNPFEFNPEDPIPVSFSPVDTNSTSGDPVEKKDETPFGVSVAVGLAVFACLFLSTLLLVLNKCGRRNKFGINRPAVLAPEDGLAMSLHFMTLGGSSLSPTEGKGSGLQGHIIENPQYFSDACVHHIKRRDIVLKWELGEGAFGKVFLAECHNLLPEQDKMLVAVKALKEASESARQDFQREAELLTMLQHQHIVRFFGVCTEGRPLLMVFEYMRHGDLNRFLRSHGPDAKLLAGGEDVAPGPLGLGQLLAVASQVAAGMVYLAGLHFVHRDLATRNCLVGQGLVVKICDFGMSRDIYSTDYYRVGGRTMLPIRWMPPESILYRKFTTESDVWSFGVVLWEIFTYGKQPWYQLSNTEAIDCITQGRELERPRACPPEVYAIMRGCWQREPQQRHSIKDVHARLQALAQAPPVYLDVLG
assay-remarks: TRK kinase mutant inhibition (HTRF), TRKA-G667C
metric: pIC50
// returns pIC50 (minus log10 of molar concentration), number only

Examples with answers:
INSERT INTO results (compound, metric, observed_measurement) VALUES
  ('CC(Nc1ccn2ncc(-c3cnn(C(F)F)c3)c2n1)c1cc(F)ccc1OCCF (stereo not drawn) [Compound a11-18]', 'pIC50', 9.00),
  ('C[C@@H](Nc1ccn2ncc(-c3cnn(C)c3)c2n1)c1cc(F)ccc1OCC(F)(F)F [Compound a23-31]', 'pIC50', 8.86),
  ('C[C@@H](Nc1ccn2ncc(-c3cnn(CCO)c3)c2n1)c1cc(F)ccc1OCC(F)F [Compound 5]', 'pIC50', 9.02);

Turning now to a further record.
Kindly note the recorded pIC50 for C[C@@H](Nc1ccn2ncc(-c3cnn(CCO)c3)c2n1)c1cc(F)ccc1OCC(F)(F)F [Compound a24-32] , which is 8.86

* * *

Measured IC50, listed per entry.
subject-of-test: TRKC-G696A (Homo sapiens, UniProt Q16288, G696A)
Sequence (Q16288 32-839 G696A): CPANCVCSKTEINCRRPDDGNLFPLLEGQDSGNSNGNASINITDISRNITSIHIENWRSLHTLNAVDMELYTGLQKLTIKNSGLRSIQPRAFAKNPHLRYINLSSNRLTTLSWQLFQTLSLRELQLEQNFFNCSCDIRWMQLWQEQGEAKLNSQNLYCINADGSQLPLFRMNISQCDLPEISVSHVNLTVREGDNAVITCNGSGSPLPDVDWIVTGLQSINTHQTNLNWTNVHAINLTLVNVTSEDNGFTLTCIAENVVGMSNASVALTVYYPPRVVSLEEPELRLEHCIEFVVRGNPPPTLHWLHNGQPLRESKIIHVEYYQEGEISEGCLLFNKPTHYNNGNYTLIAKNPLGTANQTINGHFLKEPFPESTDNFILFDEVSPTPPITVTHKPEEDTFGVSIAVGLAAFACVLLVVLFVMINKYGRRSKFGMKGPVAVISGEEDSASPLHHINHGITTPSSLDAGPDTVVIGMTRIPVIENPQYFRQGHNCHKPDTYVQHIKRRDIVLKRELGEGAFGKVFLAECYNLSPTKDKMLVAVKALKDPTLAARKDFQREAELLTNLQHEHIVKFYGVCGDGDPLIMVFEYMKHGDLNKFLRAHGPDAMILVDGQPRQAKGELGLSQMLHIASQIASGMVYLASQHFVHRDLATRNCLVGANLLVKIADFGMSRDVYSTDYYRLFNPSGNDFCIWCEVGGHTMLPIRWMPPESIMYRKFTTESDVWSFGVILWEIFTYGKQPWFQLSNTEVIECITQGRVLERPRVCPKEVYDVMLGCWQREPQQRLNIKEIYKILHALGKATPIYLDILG
assay-remarks: TRK kinase mutant inhibition (HTRF), TRKC-G696A
# value in nM; strip the unit string

INSERT INTO results (molecule, observed_measurement) VALUES
  ('C[C@@H](Nc1ccn2ncc(-c3cnn(C)c3)c2n1)c1cc(F)ccc1OC(F)F [Compound a4-8]', 1.1),
  ('C[C@@H](Nc1ccn2ncc(-c3cn[nH]c3)c2n1)c1cc(F)ccc1OCCF [Compound b7-16]', 0.77),
  ('C[C@@H](Nc1ccn2ncc(-c3cn[nH]c3)c2n1)c1cc(F)ccc1OCC(F)(F)F [Compound b8-30]', 1.3),
  ('CC(Nc1ccn2ncc(-c3cnn(C(F)F)c3)c2n1)c1cc(F)ccc1OCCF (stereo not shown) [Compound a11-18]', 0.77);

Proceeding to the next molecule to report its IC50.
The molecule listed as C[C@@H](Nc1ccn2ncc(-c3cnn(CCO)c3)c2n1)c1cc(F)ccc1OCC(F)(F)F [Compound a24-32] has a reported IC50 of 0.75

* * *

subject-of-test: TRKA-G667C (Homo sapiens, UniProt P04629, G667C)
assay-remarks: TRK kinase mutant inhibition (HTRF), TRKA-G667C
metric: IC50

response.value for `C[C@@H](Nc1ccn2ncc(-c3cn[nH]c3)c2n1)c1cc(F)ccc1OCC(F)F` (field: IC50) = 1.76 nM

`C[C@@H](Nc1ccn2ncc(-c3cnn(C)c3)c2n1)c1cc(F)ccc1OC(F)F` yielded IC50 of 3.2 nM

Query `C[C@@H](Nc1ccn2ncc(-c3cn[nH]c3)c2n1)c1cc(F)ccc1OCC(F)(F)F` yields IC50 of 0.76 nM

Sure, the documented IC50 for `C[C@@H](Nc1ccn2ncc(-c3cn[nH]c3)c2n1)c1cc(F)ccc1OCCF` is 1 nM

* * *

assay-remarks: Drug metabolism study in rats, intravenous administration
applied-conditions: rat, plasma, iv, 1 mg/kg
metric: Vd (L/kg)
Report the figure in L/kg without appending any unit label.

The examples below pair each entry with its known result.
INSERT INTO assay_data (compound, metric, observed_measurement) VALUES
  ('C[C@@H](Nc1ccn2ncc(-c3cn[nH]c3)c2n1)c1cc(F)ccc1OCC(F)(F)F [Compound b8-30]', 'Vd', 12.7),
  ('C[C@@H](Nc1ccn2ncc(-c3cnn(C)c3)c2n1)c1cc(F)ccc1OCC(F)F [Compound 2]', 'Vd', 6.8),
  ('C[C@@H](Nc1ccn2ncc(-c3cn[nH]c3)c2n1)c1cc(F)ccc1OCC(F)F [Compound 1]', 'Vd', 16.9);

Now, please, on to the next compound.
Lab book: Vd of C[C@@H](Nc1ccn2ncc(-c3cnn(CCO)c3)c2n1)c1cc(F)ccc1OCC(F)(F)F [Compound a24-32] noted as 22.8
